Hello, the source for this data is patent WO2007023782A1, in case you need it.

target: T1, nmAb-KT (neutralizing monoclonal antibody against HM-1 killer toxin); test: SPR (BIAcore X), nmAb-KT immobilised on CM5 chip; Ka = kon/koff
T1 construct: also called nmb-KT; HM-1 neutralizing monoclonal antibody
assayEndpoint: Ka (M⁻¹)
Write the number in M⁻¹ without appending the unit.

The examples below pair each entry with its known result.
binder | recordedResult
ScFv-A2 (scFv, V domains shown, Mouse anti-idiotypic single chain Fv, VH-(Gly4Ser)3 linker-VL, with a C-terminal E-Tag; also called ScFv KTIdAb; anti-idiotypic ScFv) VH: QVKLQQSGAELMKPGASVKISCKATGYTFSSYWIEWVKQRPGHGLEWIGEILPGSGSTNYNEKFKGKATFTADTSSNTAYMQLSSLTSEDSAVYYCARYYGNYYAMDYWGQGTTVTVSS | 6.66e+07
ScFv-A1 (scFv, also called ScFv-Al; ScFv KTIdAb) scFv: MAQVKLQQSGAELMKPGASVKISCKATGYTFSSYWIEWVKQRPGHGLEWIGEILPGSGSTNYNEKFKGKATFTADTSSNTAYMQLSSLTSEDSAVYYCARYYGNYYAMDYWGQGTTVTVSSGGGGSGGGGSGGGGSDIVLTQSPAIMSASPGEKVTITCSVSSSISSSNLHWYQQKSETSPKPWIYGTSNLASGVPGRFSGSGSGNSYSLTISSMEAEDVATYYCFQGSGYPLTFGSGTKLEIKRAAAGAPVPYPDPLEPR | 4.79e+07
ScFv-A4 (scFv, Mouse anti-idiotypic single chain Fv, VH-(Gly4Ser)3 linker-VL, with a C-terminal E-Tag; also called ScFv KTIdAb; anti-idiotypic ScFv) scFv: MAQVKLQQSGAELMKPGASVKISCKATGYTFSSYWIEWVKQRPGHGLEWIGEILPGSGSTNYNEKFKGKATFTADTSSNTAYMQLSSLTSEDSAVYYCARYYGNYYAMDYWGQGTTVTVSSGGGGSGGGGSGGGGSDIVLTQSPAIMSASPGEKSPSPAVSAQVYVPATCTGTSRSQKPPPNPGFMAHPTWLLESQVASVAVGLENSYSLTISSMEAEDVATYYCFQGSGYPLTFGSGTKLEIKRAAAGAPVPYPDPLEPR | 4.48e+07

Turning now to a further binder:
QUERY: State its Ka for this binder: ScFv-A3 (scFv, Mouse anti-idiotypic single chain Fv, VH-(Gly4Ser)3 linker-VL, with a C-terminal E-Tag; also called ScFv KTIdAb; anti-idiotypic ScFv) scFv: MAQVKLQQSGAELMKPGASVKISCKATGYTFSSYWIEWVKQRPGHGLEWIGEILPGSGSTNYNEKFKGKATFTADTSSNTAYMQLSSLTSEDSAVYYCARYYGNYYAMDYWGQGTTVTVSSGGGGSGGGGSGGGGSDIVLTQSPAIMSASPGEKVTITCSVSSSRSSSNLHWYQQKSETSPKPWIYGTSNLASGVPGRFSGSGSGKLLLSHDQQHEAEDVATYYCFQGSGYPLTFGSGTKLEIKRAAAGAPVPYPDPLEPR
RESULT: 3.05e+07
